Tested on: Staphylococcus aureus
Test: Antibacterial activity against methicillin-resistant Staphylococcus aureus DRCC 446
Assay type: functional

- SMILES_DATA: "COC(=O)NC[C@H]1CN(c2ccc(N3CCN(CC(=N)NO)CC3)c(F)c2)C(=O)O1"
  MIC: "16 µg/mL"
- SMILES_DATA: "N/C(CN1CCN(c2c(F)cc(N3C[C@H](COc4ccon4)OC3=O)cc2F)CC1)=N\\O"
  MIC: "2 µg/mL"
- SMILES_DATA: "C/C(S)=N/C[C@H]1CN(c2ccc(N3CCN(CC(=N)NO)CC3)c(F)c2)C(=O)O1"
  MIC: "1 µg/mL"
- SMILES_DATA: "CO/C(S)=N/C[C@H]1CN(c2cc(F)c(N3CCN(CC(=N)NO)CC3)c(F)c2)C(=O)O1"
  MIC: "0.25 µg/mL"
- SMILES_DATA: "N/C(CN1CCN(c2c(F)cc(N3C[C@H](CNC(=O)C(F)F)OC3=O)cc2F)CC1)=N\\O"
  MIC: "1 µg/mL"

---

Catalogue of MIC readings, one per entry.
Test system: Staphylococcus aureus
Experiment: Antibacterial activity against methicillin-resistant Staphylococcus aureus DRCC 446
Type: functional

- SMILES_DATA: "C/C(S)=N/C[C@H]1CN(c2cc(F)c(N3CCN(CC(=N)NO)CC3)c(F)c2)C(=O)O1"
  OUTPUT_UNIT: "mg/L"
  MIC: 0.25
- SMILES_DATA: "N/C(CN1CCN(c2ccc(N3C[C@H](CNC(=O)C(F)F)OC3=O)cc2F)CC1)=N\\O"
  OUTPUT_UNIT: "mg/L"
  MIC: 4
- SMILES_DATA: "COC(=O)NC[C@H]1CN(c2cc(F)c(N3CCN(CC(=N)NO)CC3)c(F)c2)C(=O)O1"
  OUTPUT_UNIT: "mg/L"
  MIC: 1
- SMILES_DATA: "N/C(CN1CCN(c2ccc(N3C[C@H](COc4ccon4)OC3=O)cc2F)CC1)=N\\O"
  OUTPUT_UNIT: "mg/L"
  MIC: 4
- SMILES_DATA: "CC(=O)NC[C@H]1CN(c2cc(F)c(N3CCN(CC(=N)NO)CC3)c(F)c2)C(=O)O1"
  OUTPUT_UNIT: "mg/L"
  MIC: 1
- SMILES_DATA: "CC(=O)NC[C@H]1CN(c2ccc(N3CCN(CC(=N)NO)CC3)c(F)c2)C(=O)O1"
  OUTPUT_UNIT: "mg/L"
  MIC: 4
- SMILES_DATA: "CO/C(S)=N/C[C@H]1CN(c2ccc(N3CCN(CC(=N)NO)CC3)c(F)c2)C(=O)O1"
  OUTPUT_UNIT: "mg/L"
  MIC: 0.5

---

Catalogue of ED50 readings, one per entry.
Test system: Staphylococcus aureus
Test: Efficacy against po dosed mouse infected with Staphylococcus aureus ATCC 29213
Format: functional
ENDPOINT_LABEL: ED50

- SMILES_DATA: "N/C(CN1CCN(c2c(F)cc(N3C[C@H](CNC(=O)C(F)F)OC3=O)cc2F)CC1)=N\\O"
  ASSAY_TARGET: "Staphylococcus aureus"
  ENDPOINT_LABEL: "ED50"
  RESULT: "18.3 mg/kg/day"
- SMILES_DATA: "C/C(S)=N/C[C@H]1CN(c2cc(F)c(N3CCN(CC(=N)NO)CC3)c(F)c2)C(=O)O1"
  ASSAY_TARGET: "Staphylococcus aureus"
  ENDPOINT_LABEL: "ED50"
  RESULT: "22.1 mg/kg/day"
- SMILES_DATA: "CO/C(S)=N/C[C@H]1CN(c2ccc(N3CCN(CC(=N)NO)CC3)c(F)c2)C(=O)O1"
  ASSAY_TARGET: "Staphylococcus aureus"
  ENDPOINT_LABEL: "ED50"
  RESULT: "21.2 mg/kg/day"
- SMILES_DATA: "CC(=O)NC[C@H]1CN(c2ccc(N3CCOCC3)c(F)c2)C(=O)O1"
  ASSAY_TARGET: "Staphylococcus aureus"
  ENDPOINT_LABEL: "ED50"
  RESULT: "5.3 mg/kg/day"
- SMILES_DATA: "COC(=O)NC[C@H]1CN(c2cc(F)c(N3CCN(CC(=N)NO)CC3)c(F)c2)C(=O)O1"
  ASSAY_TARGET: "Staphylococcus aureus"
  ENDPOINT_LABEL: "ED50"
  RESULT: "32.2 mg/kg/day"
- SMILES_DATA: "N/C(CN1CCN(c2ccc(N3C[C@H](CNC(=O)C(F)F)OC3=O)cc2F)CC1)=N\\O"
  ASSAY_TARGET: "Staphylococcus aureus"
  ENDPOINT_LABEL: "ED50"
  RESULT: "12.1 mg/kg/day"
- SMILES_DATA: "CO/C(S)=N/C[C@H]1CN(c2cc(F)c(N3CCN(CC(=N)NO)CC3)c(F)c2)C(=O)O1"
  ASSAY_TARGET: "Staphylococcus aureus"
  ENDPOINT_LABEL: "ED50"
  RESULT: "32.2 mg/kg/day"
